System: UACC-62 (Melanoma)
Assay: Bliss excess, mean over the matrix (fraction); higher = more synergy;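 note: after 72 h of two-drug dosing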
reportedMetric: Bliss excess
Output: the number by itself.

[
  {
    "compound": "CN(CCO)CC[C@H](CSc1ccccc1)Nc1ccc(S(=O)(=O)NC(=O)c2ccc(N3CCC([C@@H](O)c4ccccc4-c4ccc(Cl)cc4)CC3)cc2)cc1S(=O)(=O)C(F)(F)F [AZD4320] + C1CN(CCC1(C(=O)N[C@@H](CCO)C2=CC=C(C=C2)Cl)N)C3=NC=NC4=C3C=CN4 [Capivasertib] (first compound max 1 µM, 7x7, partner max 3 µM)",
    "numericResult": -0.0584
  }
]

For the next question, use this compound.
Bliss excess recorded for this compound, COc1nnc2ccc(N3CCC(c4ccc(OCCN5CCN(C)C(=O)[C@H]5C)cc4)CC3)nn12 [AZD5153] + Cn1cnc2c(F)c(Nc3ccc(Br)cc3Cl)c(C(=O)NOCCO)cc21 [Selumetinib] (first compound max 1 µM, 7x7, partner max 10 µM) , is 0.0397

====

Test system: TGW (Neuroblastoma)
Assay: Bliss excess, mean over the matrix (fraction); higher = more synergy
# Bliss excess per entry
No unit in the answer, please; the number alone is enough.

[
  {
    "molecule": "Cc1c2c(nn1C)CSCc1cc(n(C)n1)CSc1cc(c3ccccc3c1)OCCCc1c(C(=O)O)n(C)c3c-2c(Cl)ccc13 [AZD5991] + C[C@@H]1COCCN1C2=NC(=NC(=C2)C3(CC3)[S@](=N)(=O)C)C4=C5C=CNC5=NC=C4 [AZD6738] (first compound max 1 µM, 7x7, partner max 10 µM)",
    "Bliss excess": 0.0167
  },
  {
    "molecule": "CC(=O)c1c(C)c2cnc(Nc3ccc(N4CCNCC4)cn3)nc2n(C2CCCC2)c1=O [Palbociclib] + Cn1cnc2c(F)c(Nc3ccc(Br)cc3Cl)c(C(=O)NOCCO)cc21 [Selumetinib] (first compound max 10 µM, 7x7, partner max 10 µM)",
    "Bliss excess": 0.0125
  },
  {
    "molecule": "CN(C)CCCOc1ccc(-c2ccc3ncc4c(c3c2)n(C2CCOCC2)c(=O)n4C)cn1 [AZD0156] + C=CCn1c(=O)c2cnc(Nc3ccc(N4CCN(C)CC4)cc3)nc2n1-c1cccc(C(C)(C)O)n1 [AZD1775] (first compound max 1 µM, partner max 1 µM)",
    "Bliss excess": -0.0051
  },
  {
    "molecule": "CN(CCO)CC[C@H](CSc1ccccc1)Nc1ccc(S(=O)(=O)NC(=O)c2ccc(N3CCC([C@@H](O)c4ccccc4-c4ccc(Cl)cc4)CC3)cc2)cc1S(=O)(=O)C(F)(F)F [AZD4320] + C[C@@H]1COCCN1C2=NC(=NC(=C2)C3(CC3)[S@](=N)(=O)C)C4=C5C=CNC5=NC=C4 [AZD6738] (first compound max 1 µM, 7x7, partner max 10 µM)",
    "Bliss excess": -0.0629
  },
  {
    "molecule": "COc1nnc2ccc(N3CCC(c4ccc(OCCN5CCN(C)C(=O)[C@H]5C)cc4)CC3)nn12 [AZD5153] + Cn1cnc2c(F)c(Nc3ccc(Br)cc3Cl)c(C(=O)NOCCO)cc21 [Selumetinib] (first compound max 1 µM, 7x7, partner max 10 µM)",
    "Bliss excess": -0.0392
  }
]

Looking up Cc1cc2ncnn2cc1Nc1ncc2c(n1)n(C1CCOCC1)c(=O)n2C [AZD7648] + CN(C)CCCOc1ccc(-c2ccc3ncc4c(c3c2)n(C2CCOCC2)c(=O)n4C)cn1 [AZD0156] (first compound max 10 µM, 7x7, partner max 1 µM) , I found its Bliss excess recorded as 0.0804

The reported value for CC1(C)CCC(CN2CCN(c3ccc(C(=O)NS(=O)(=O)c4ccc(NCC5CCOCC5)c([N+](=O)[O-])c4)c(Oc4cnc5[nH]ccc5c4)c3)CC2)=C(c2ccc(Cl)cc2)C1 [Venetoclax] + CS(=O)(=O)CCNCc1ccc(-c2ccc3ncnc(Nc4ccc(OCc5cccc(F)c5)c(Cl)c4)c3c2)o1 [Lapatinib] (first compound max 1 µM, 7x7, partner max 10 µM) in terms of Bliss excess is -0.0223

The molecule C[C@@H](Oc1cc(-c2cnn(C3CCNCC3)c2)cnc1N)c1c(Cl)ccc(F)c1Cl [Crizotinib] + CC1=C(C(=CC=C1)Cl)NC(=O)C2=CN=C(S2)NC3=CC(=NC(=N3)C)N4CCN(CC4)CCO [Dasatinib] (first compound max 10 µM, 7x7, partner max 2 µM) showed Bliss excess equal to -0.0593

# Bliss excess (molecule: C[C@@H](c1ccc2nccn2c1)n1nnc2ncc(-c3cnn(C)c3)nc21 [Savolitinib] + Cc1c2c(nn1C)CSCc1cc(n(C)n1)CSc1cc(c3ccccc3c1)OCCCc1c(C(=O)O)n(C)c3c-2c(Cl)ccc13 [AZD5991] (first compound max 1 µM, 7x7, partner max 1 µM) ) is -0.0467

Looking up C=CCn1c(=O)c2cnc(Nc3ccc(N4CCN(C)CC4)cc3)nc2n1-c1cccc(C(C)(C)O)n1 [AZD1775] + C[C@@H]1COCCN1C2=NC(=NC(=C2)C3(CC3)[S@](=N)(=O)C)C4=C5C=CNC5=NC=C4 [AZD6738] (first compound max 1 µM, partner max 10 µM) , I found its Bliss excess recorded as 0.0606

Entry under test: CCN(CCO)CCCOc1ccc2c(Nc3cc(CC(=O)Nc4cccc(F)c4)[nH]n3)ncnc2c1 [AZD2811] + C[C@@H]1COCCN1C2=NC(=NC(=C2)C3(CC3)[S@](=N)(=O)C)C4=C5C=CNC5=NC=C4 [AZD6738] (first compound max 1 µM, 7x7, partner max 10 µM) . Its Bliss excess was -0.0211

Measured Bliss excess of C[C@@H](c1ccc2nccn2c1)n1nnc2ncc(-c3cnn(C)c3)nc21 [Savolitinib] + CC1(C)CCC(CN2CCN(c3ccc(C(=O)NS(=O)(=O)c4ccc(NCC5CCOCC5)c([N+](=O)[O-])c4)c(Oc4cnc5[nH]ccc5c4)c3)CC2)=C(c2ccc(Cl)cc2)C1 [Venetoclax] (first compound max 1 µM, 7x7, partner max 1 µM) : -0.0486

Entry C=CCn1c(=O)c2cnc(Nc3ccc(N4CCN(C)CC4)cc3)nc2n1-c1cccc(C(C)(C)O)n1 [AZD1775] + O=C(c1cc(Cc2n[nH]c(=O)c3ccccc23)ccc1F)N1CCN(C(=O)C2CC2)CC1 [Olaparib] (first compound max 1 µM, partner max 10 µM) — recorded Bliss excess = -0.0383
